experiment: clinical; conditions: human, in vivo, iv
Decide using fraction unbound alone. Strictly below 0.4: Satisfied. Equal to or above 0.4: Not satisfied.

Prompt line: Does `Cc1cn([C@H]2C[C@H](N=[N+]=[N-])[C@@H](CO)O2)c(=O)[nH]c1=O` have fraction unbound strictly under 0.4?
Response line: Not satisfied

Prompt line: Same thing, different compound: `CCN[C@@H]1C[C@H](N)[C@@H](O[C@H]2OC(CN)=CC[C@H]2N)[C@H](O)[C@H]1O[C@H]1OC[C@](C)(O)[C@H](NC)[C@H]1O`
Response line: Not satisfied

Prompt line: Same thing, different compound: Cc1cccc(C)c1NC(=O)C1CCCCN1C (stereo not given) [MEPIVACAINE]
Response line: Satisfied

Prompt line: Same thing, different compound: `O=c1c(O)c(-c2ccc(O)c(O)c2)oc2cc(O)cc(O)c12`
Response line: Satisfied

Prompt line: Same thing, different compound: `CC(=O)[C@H]1CC[C@H]2[C@@H]3CC[C@@H]4C[C@H](O)CC[C@]4(C)[C@H]3CC[C@]12C`
Response line: Satisfied

Prompt line: Same thing, different compound: `CN[C@@H]1[C@@H](O)[C@@H](O[C@@H]2[C@@H](O)[C@H](O[C@H]3O[C@H](CN)[C@@H](O)[C@H](O)[C@H]3O)[C@@H](N)C[C@H]2NC(=O)[C@@H](O)CN)OC[C@]1(C)O`
Response line: Not satisfied

Prompt line: Same thing, different compound: C[C@H](Cn1cnc2c(N)ncnc21)OCP(=O)(O)O [TENOFOVIR ANHYDROUS]
Response line: Not satisfied

Prompt line: Same thing, different compound: CC(C)NCC(O)c1ccc(O)c(O)c1 (stereo not given)
Response line: Not satisfied

Prompt line: Same thing, different compound: `Nc1nc(F)nc2c1ncn2[C@@H]1O[C@H](CO)[C@@H](O)[C@@H]1O`
Response line: Not satisfied

====

experiment: clinical; settings: human, in vivo, iv, CL
Items are presented alongside their recorded clearance.
Your answer should be a plain number; it is taken to be in mL/min/kg.

The examples below pair each entry with its known result.
C[C@H]1COc2c(N3CCN(C)CC3)c(F)cc3c(=O)c(C(=O)O)cn1c23.C[C@H]1COc2c(N3CCN(C)CC3)c(F)cc3c(=O)c(C(=O)O)cn1c23.O [LEVOFLOXACIN] ... 1.9
C#C[C@]1(O)CC[C@H]2[C@@H]3CCc4cc(OS(=O)(=O)O)ccc4[C@H]3CC[C@@]21C ... 4.7
Nc1nc(NC2CC2)c2ncn([C@H]3C=C[C@@H](CO)C3)c2n1 [ABACAVIR] ... 13
COCC(=O)O[C@]1(CCN(C)CCCc2nc3ccccc3[nH]2)CCc2cc(F)ccc2[C@@H]1C(C)C [MIBEFRADIL] ... 4
CC[C@@]1(O)C(=O)OCc2c1cc1n(c2=O)Cc2cc3c(N)cccc3nc2-1 [9-AMINOCAMPTOTHECIN] ... 6.5
NC(N)=Nc1nc(CSCCC(N)=NS(N)(=O)=O)cs1 [FAMOTIDINE] ... 6.6

Prompt line: Would you kindly share the measured clearance for CO/N=C(\C(=O)N[C@@H]1C(=O)N2C(C(=O)O)=C(COC(N)=O)CS[C@H]12)c1ccco1 [CEFUROXIME] ?
Response line: 2.2

Prompt line: Same thing, different compound: CCCCN1CCCCC1C(=O)Nc1c(C)cccc1C (stereo unspecified) [BUPIVACAINE]
Response line: 4.3

Prompt line: Same thing, different compound: CN[C@@H]1[C@@H](O)[C@@H](O[C@@H]2[C@@H](O)[C@H](O[C@H]3O[C@H](CN)[C@@H](O)[C@H](O)[C@H]3O)[C@@H](N)C[C@H]2NC(=O)[C@@H](O)CN)OC[C@]1(C)O [ISEPAMICIN]
Response line: 1.3

Prompt line: Same thing, different compound: C[C@@H]1C(=O)O[C@H]2C[C@@]34[C@H]5C[C@@H](C(C)(C)C)[C@]36[C@@H](OC(=O)[C@@H]6O)O[C@@]4(C(=O)O5)[C@]21O [GINKGOLIDE A]
Response line: 2.3

Prompt line: Same thing, different compound: COC(=O)Nc1nc2ccc(C(=O)c3ccccc3)cc2[nH]1 [MEBENDAZOLE]
Response line: 15

Prompt line: Same thing, different compound: O=C1CCC(N2C(=O)c3ccccc3C2=O)C(=O)N1 (stereo unspecified) [THALIDOMIDE]
Response line: 3.4

Prompt line: Same thing, different compound: `Nc1nc(N)c2nc(-c3ccccc3)c(N)nc2n1`
Response line: 63

Prompt line: Same thing, different compound: CC(=O)N[C@@H](CS)C(=O)O [ACETYLCYSTEINE]
Response line: 3.1

Prompt line: Same thing, different compound: CC1(C)S[C@@H]2[C@H](NC(=O)C(C(=O)O)c3ccccc3)C(=O)N2[C@H]1C(=O)O (stereo partly specified) [CARBENICILLIN]
Response line: 1.9

Prompt line: Same thing, different compound: CCC[C@@H]1C[C@@H](C(=O)N[C@@H]([C@H]2O[C@H](SC)[C@H](O)[C@@H](O)[C@H]2O)[C@@H](C)O)N(C)C1 [LINCOMYCIN]
Response line: 2.1

====

test: clinical; conditions: human, in vivo, iv, t1/2
So basically every entry gets a class from its half-life, ranges being bottom: < 300 min; middle: ≥ 300 min and < 800 min; top: ≥ 800 min

COCC(=O)Nc1c(I)c(C(=O)NCC(O)CO)c(I)c(C(=O)N(C)CC(O)CO)c1I (configuration not stated) [IOPROMIDE] ... bottom
N[C@@H]1CN(c2c(F)cc3c(=O)c(C(=O)O)cn([C@@H]4C[C@@H]4F)c3c2Cl)CC12CC2 [SITAFLOXACIN ANHYDROUS] ... middle
CCN(CC)CCCC(C)Nc1c2ccc(Cl)cc2nc2ccc(OC)cc12 (configuration not stated) ... top
CC[C@]1(O)C[C@@H]2CN(CCc3c([nH]c4ccccc34)[C@@](C(=O)OC)(c3cc4c(cc3OC)N(C)[C@H]3[C@@](O)(C(=O)OC)[C@H](OC(C)=O)[C@]5(CC)C=CCN6CC[C@]43[C@@H]65)C2)C1 ... top
COc1ccc(Cl)cc1[C@]1(F)C(=O)Nc2cc(C(F)(F)F)ccc21 ... top

Prompt line: Could you place O=C([O-])[O-].[Li+].[Li+] [LITHIUM CARBONATE] in its proper category? Many thanks.
Response line: middle

Prompt line: Same thing, different compound: `CCN[C@@H](C)Cc1cccc(C(F)(F)F)c1`
Response line: top

Prompt line: Same thing, different compound: `O=C(O)[C@@H]1C[C@@H](C2CCCCC2)CN1C(=O)CP(=O)(O)CCCCc1ccccc1`
Response line: middle

====

Items are presented alongside their recorded half-life.
experiment: clinical; conditions: human, in vivo, iv, t1/2
Your answer should be a plain number; it is taken to be in h.

The examples below pair each entry with its known result.
CCCn1c(=O)[nH]c(=O)c2[nH]cnc21 ... 1.8
CC(C)(C)NC(=O)[C@H]1CC[C@H]2[C@@H]3CC=C4C=C(C(=O)O)CC[C@]4(C)[C@H]3CC[C@]12C [EPRISTERIDE] ... 27

Prompt line: Would you kindly share the measured half-life for `O=C1CN=C(c2ccccc2Cl)c2cc(Cl)ccc2N1` ?
Response line: 200

Prompt line: Same thing, different compound: OC(CNCC(O)C1CCc2cc(F)ccc2O1)C1CCc2cc(F)ccc2O1 (centres undefined)
Response line: 10

Prompt line: Same thing, different compound: CCN1CCC[C@H]1CNC(=O)c1c(OC)ccc(Br)c1OC [REMOXIPRIDE]
Response line: 5.5

Prompt line: Same thing, different compound: CCOC(=O)[C@@H]1C2CCC(C[C@@H]1OC(=O)c1ccccc1)N2C (some centres undefined)
Response line: 1.5

Prompt line: Same thing, different compound: CCCNC(=O)NS(=O)(=O)c1ccc(Cl)cc1 [CHLORPROPAMIDE]
Response line: 46

Prompt line: Same thing, different compound: `C[C@H](CCc1ccccc1)NC[C@H](O)c1ccc(O)c(C(N)=O)c1`
Response line: 3.3

Prompt line: Same thing, different compound: `CCN(C)C(=O)Oc1cccc([C@H](C)N(C)C)c1`
Response line: 1.4

====

assay: clinical; conditions: human, in vivo, iv
So basically every entry gets a class from its MRT, ranges being 0 = under 2 h, 1 = from 2 h up to 6 h, 2 = 6 h and over

Previously resolved entries follow.
CC[N+](C)(C)c1cccc(O)c1.[Br-] [EDROPHONIUM BROMIDE] ... 0
CNC(=C[N+](=O)[O-])NCCSCc1csc(CN(C)C)n1 ... 0
NNC(=O)c1ccncc1 ... 0

Prompt line: Could you place `CO[C@@]1(NC(=O)Cc2cccs2)C(=O)N2C(C(=O)O)=C(COC(N)=O)CS[C@@H]21` in its proper category? Many thanks.
Response line: 0

Prompt line: Same thing, different compound: `COc1cc(OC)c(C(=O)CCCN2CCCC2)c(OC)c1`
Response line: 1

Prompt line: Same thing, different compound: `O=C(O)c1cc(-c2ccc(F)cc2F)ccc1O`
Response line: 2

Prompt line: Same thing, different compound: CCN(CCO)CCCC(C)Nc1ccnc2cc(Cl)ccc12 (stereo unspecified) [HYDROXYCHLOROQUINE]
Response line: 2

Prompt line: Same thing, different compound: `CN1CCN(C2=Nc3cc(Cl)ccc3Nc3ccccc32)CC1`
Response line: 2
